# assay_info: chemical genetic growth profiling, strain panel (AID 1159580);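 further: tested at 20 µM; growth read once vehicle control cultures reached saturation at 30 °C; 1 = growth at the plate median or of vehicle wells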
# condition_context: S. cerevisiae deletion strains, growth OD, locus YPL106C, strain sse1, stronger effect = lower value
Among all 5,500 compounds or so, about 2,000 (36%) were called active. Not shown: some 18% with an inconclusive outcome. Some of the results follow.
outcome_measure: normalized growth

Field: example entries. Status: answers known.
[[record]]
molecule = "O=C(Oc1cc(O)cc2c1C[C@@H](OC(=O)c1cc(O)c(O)c(O)c1)[C@@H](c1cc(O)c(O)c(O)c1)O2)c1cc(O)c(O)c(O)c1"
measurement = "1.01 (inactive)"

[[record]]
molecule = "CCCc1cc(C(N)=S)ccn1"
measurement = "0.956 (inactive)"

[[record]]
molecule = "CC(=O)Oc1cc(OC(C)=O)c2c(c1)O[C@H](c1ccc(OC(C)=O)c(OC(C)=O)c1)[C@H](OC(C)=O)C2"
measurement = "0.967 (inactive)"

[[record]]
molecule = "CCN(CC)C(=O)N1CCN(C)CC1"
measurement = "0.898 (inactive)"

[[record]]
molecule = "O=C(O[C@@H]1Cc2c(O)cc(O)cc2O[C@@H]1c1cc(O)c(O)c(O)c1)c1cc(O)c(O)c(O)c1"
measurement = "0.762 (active)"


Return reported normalized growth values for all items listed beneath this line.
1. O=C1C(Cl)=C(Cl)C(=O)C(Cl)=C1Cl
2. CN(C)CCOC(c1ccc(Cl)cc1)c1ccccn1 (configuration not stated)
3. N=c1ccn2c(n1)OC1C(O)C(CO)OC12 (configuration not stated)
4. CCCCCCCCCCCCCc1ccco1
5. Cc1ccccc1C(OCCN(C)C)c1ccccc1 (configuration not stated)
6. CC(C)NCC(O)COc1cccc2[nH]ccc12 (configuration not stated)
7. C=CCCCCCCCCCCCc1ccco1

Result:
1. 0.838 (active)
2. 0.993 (inactive)
3. 0.981 (inactive)
4. 1.01 (inactive)
5. 1.02 (inactive)
6. 0.979 (inactive)
7. 0.96 (inactive)

---

# assay_info: chemical genetic growth profiling, strain panel (AID 1159580)
# condition_context: S. cerevisiae deletion strains, growth OD, locus YLR342W, strain FKS1 (second series)
The campaign covered roughly 5,500 compounds. About 2,000 (36%) were called active. Inconclusive results (about 18%) are left out. No stated cut-off is given here; in the data, active means normalized growth mostly below about 0.91 (no sharp cut-off); inconclusive means no clear call, values can overlap the other calls; inactive means mostly above about 0.92. This is one part of the list.
Output constraint: value belongs to t = active, f = inactive

[[record]]
compound = "C#CCN(C)Cc1ccccc1"
class_name = "f"

[[record]]
compound = "Cc1ncc(CNC(=O)N(CCCl)N=O)c(N)n1"
class_name = "f"

[[record]]
compound = "NS(=O)(=O)c1cc2c(cc1Cl)NC=NS2(=O)=O"
class_name = "f"

[[record]]
compound = "C[n+]1c2cc(N)ccc2cc2ccc(N)cc21"
class_name = "f"


Ask: Which outcome did this test record for the compound `CN1CC(CO)=C[C@@H]2c3cccc4[nH]cc(c34)C[C@H]21` ?
Result: f

Ask: So what was the verdict on `O=C1C(Cl)=C(Cl)C(=O)C(Cl)=C1Cl` in this test?
Result: t

Ask: Record request — test call for `COc1ccc(-c2coc3cc(O)ccc3c2=O)c(OC)c1O`
Result: f

---

# assay_info: chemical genetic growth profiling, strain panel (AID 1159580)
# condition_context: S. cerevisiae deletion strains, growth OD, locus YPL153C, strain RAD53, stronger effect = lower value
In all, about 5,500 compounds went through this assay and about 2,000 (36%) were called active. Another 18% or so got no clear call; they are omitted. The list shows a part of the results.
Consider the following compounds; for each one, report its normalized growth.
Give bare numbers.

Please review the following examples before continuing.
[[record]]
structure_notation = "C/C(Cc1nnn(-c2cc(C)on2)n1)=N/OC(=O)Nc1ccc(Cl)cc1"
measurement = 0.953

[[record]]
structure_notation = "Cc1cc(C(=O)NNS(=O)(=O)c2ccc(F)c(Cl)c2)nn1-c1c(Cl)cc(Cl)cc1Cl"
measurement = 1.03

[[record]]
structure_notation = "N/C(Cn1ccc(C(F)(F)F)n1)=N/OS(=O)(=O)c1cccc(Cl)c1Cl"
measurement = 0.987

[[record]]
structure_notation = "O=C(Nc1cccc(C(F)(F)F)c1)c1cncc(C#Cc2ccccc2)c1"
measurement = 0.921


Ask: Suppose we examine the compound `CC(C)c1ccc(COC(=O)Nc2ccc(CSc3ccc(Cl)cc3)o2)cc1` ; what normalized growth value has been reported?
Result: 0.912

---

# assay_info: chemical genetic growth profiling, strain panel (AID 1159580);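 further: tested at 20 µM; growth read once vehicle control cultures reached saturation at 30 °C; 1 = growth at the plate median or of vehicle wells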
# condition_context: S. cerevisiae deletion strains, growth OD, locus YCL061C, strain MRC1, stronger effect = lower value
In all, about 5,500 compounds went through this assay and about 2,000 (36%) were called active. Not shown: some 18% with an inconclusive outcome. This is one part of the list.
Would you mind telling me the reported normalized growth of each entry?

Examples with their reported normalized growth follow.
[[record]]
molecule = "CNC(=O)O/N=C(\\C)SC"
measurement = "1 (inactive)"

[[record]]
molecule = "O=C(O[C@@H]1Cc2c(O)cc(O)cc2O[C@@H]1c1cc(O)c(O)c(O)c1)c1cc(O)c(O)c(O)c1"
measurement = "0.913 (active)"

[[record]]
molecule = "O=C(Oc1cc(O)cc2c1C[C@@H](OC(=O)c1cc(O)c(O)c(O)c1)[C@@H](c1cc(O)c(O)c(O)c1)O2)c1cc(O)c(O)c(O)c1"
measurement = "0.983 (inactive)"

[[record]]
molecule = "CCCCCCCCCCCCCc1ccco1"
measurement = "0.96 (inactive)"

[[record]]
molecule = "CC(=O)O[C@H]1C[C@@H](OC(C)=O)C(C)(C)C2CC(=O)[C@]3(C)C(CC[C@@]4(C)[C@H](C(=O)O)OC(=O)C5OC543)[C@]21C (some centres undefined)"
measurement = "0.987 (inactive)"


Take each entry in turn and give its normalized growth.
1. CC(=O)Oc1cc(OC(C)=O)c2c(c1)O[C@H](c1ccc(OC(C)=O)c(OC(C)=O)c1)[C@H](OC(C)=O)C2
2. O=C(O)c1cc2cc(F)ccc2[nH]1

Result:
1: 0.999 (inactive); 2: 0.971 (inactive)

// batch mode: one normalized growth value per listed entry
1. CC(=O)Oc1cc(OC(C)=O)c2c(c1)O[C@H](c1ccc(OC(C)=O)c(OC(C)=O)c1)[C@@H](OC(C)=O)C2
2. Cc1ncc(CNC(=O)N(CCCl)N=O)c(N)n1

Result:
["0.994 (inactive)", "0.999 (inactive)"]

---

# assay_info: chemical genetic growth profiling, strain panel (AID 1159580);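 further: tested at 20 µM; growth read once vehicle control cultures reached saturation at 30 °C; 1 = growth at the plate median or of vehicle wells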
# condition_context: S. cerevisiae deletion strains, growth OD, locus YHR142W, strain chs7, stronger effect = lower value
The campaign covered roughly 5,500 compounds. About 2,000 (36%) were called active. Inconclusive results (about 18%) are left out. The list shows a part of the results.
Field: normalized growth. Provide a value for each of the compounds that follow.
One number for each entry.

As a guide, the following entries are already answered.
[[record]]
compound = "COC(=O)C[C@H]1C2(C)CC34OC5(C)O[C@@]6([C@H](OC)C(OC(=O)C(C)C)[C@]7(C)C(/C(=C(/OC)C(C)C)C(=O)O[C@H]7c7ccoc7)[C@@]6(O5)[C@H](OC)[C@@]3(OC)C2OC(C)=O)[C@]14C (stereo not given in full)"
outcome_measure = "normalized growth"
measurement = 0.97

[[record]]
compound = "C=C[C@@](C)(O)CCC1C(=C)CCC2[C@@](C)(CO)CCC[C@]12C (stereo not given in full)"
outcome_measure = "normalized growth"
measurement = 1.01


Provide each entry's normalized growth from the list below.
1. Cc1ccc(S(=O)(=O)NC(=O)NN2CCCCCC2)cc1
2. NCCc1cnc[nH]1
3. CCC(C)C(=O)O[C@@H]1C[C@@]2(C)[C@H](c3ccoc3)OC(=O)CC23OC2(C)O[C@]14[C@]1(C)[C@@H](CC(=O)OC)C5(C)CC1(O)[C@](O)(C5OC(=O)C1(C)OC1C)[C@@H](OC(C)=O)[C@]34O2 (stereo not given in full)

Result:
0.986
1.01
0.984

---

# assay_info: chemical genetic growth profiling, strain panel (AID 1159580);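 further: tested at 20 µM; growth read once vehicle control cultures reached saturation at 30 °C; 1 = growth at the plate median or of vehicle wells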
# condition_context: S. cerevisiae deletion strains, growth OD, locus YLL001W, strain dnm1, stronger effect = lower value
The whole screen tested about 5,500 compounds, of which about 2,000 (36%) were called active. Another 18% or so got no clear call; they are omitted. The list shows a part of the results.
Field: normalized growth. Provide a value for each of the compounds that follow.

[[record]]
compound = "COC(=O)C1=COC(OC2OC(CO)C(O)C(O)C2O)C2C(C)CC(=O)C12 (configuration not stated)"
outcome_measure = "normalized growth"
measurement = "1.05 (inactive)"


Hi! Can you tell me normalized growth for each of these compounds?
1. COc1ccc(CN(CCN(C)C)c2ccccn2)cc1
2. CN(C)CCN(Cc1ccccc1)c1ccccn1
3. C[n+]1c2cc(N)ccc2cc2ccc(N)cc21

Result:
["1.01 (inactive)", "1.04 (inactive)", "0.456 (active)"]

Okay, here is my list. What is normalized growth for each of these?
1. CCN(CC)C(=O)N1CCN(C)CC1
2. C/C=C(\C)C(=O)O[C@H]1C[C@@H](OC(C)=O)[C@@]2(C(=O)OC)CO[C@@H]3C2[C@]12CO[C@](O)(C(=O)OC)[C@H]2[C@](C)(C12O[C@@]1(C)[C@H]1C[C@@H]2OC2OC=C[C@@]21O)[C@@H]3O (some centres not stated)
3. N[C@@H](Cc1ccc(N(CCCl)CCCl)cc1)C(=O)O
4. O=C(O)c1cc2cc(F)ccc2[nH]1
5. COC(=O)c1cc(=O)c(O)c2c(O)c(O)ccc2c1
6. O=S(=O)(O)CCS
7. C=CCc1ccc(O)c(OC)c1
8. CC[C@@]1(O)C[C@H](O[C@H]2C[C@H](N(C)C)[C@H](O)[C@H](C)O2)c2c(cc3c(c2O)C(=O)c2c(O)ccc(O)c2C3=O)[C@H]1C(=O)OC

Result:
["0.997 (inactive)", "0.965 (inactive)", "0.929 (inactive)", "0.976 (inactive)", "0.99 (inactive)", "1 (inactive)", "1.02 (inactive)", "0.884 (active)"]

Source of measurements: PubChem BioAssay AID1159580
